# study.target: T1, monkey GPC3-His protein (monkey)
# T1 construct: Bought recombinant protein; also called monkey GPC3 protein
# assay: ELISA, monkey GPC3-His coated;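 note: Plate-coated antigen at 1 µg/mL, antibody binding 2 h at 37 °C, detected with HRP-labeled secondary antibody and TMB, absorbance at 450 nm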
experimental.endpoint: OD450 at 100 nM (OD450)
Expressed in OD450, but write only the number.

I'd like to know its OD450 at 100 nM. The binder in question is F2.55.11 (antibody, human IgG1, kappa, V domains shown, Human-murine chimeric antibody) VH: EVKLVESGGGLVKPGGSLKLSCAASGLTFSTCTMSWVRQTPAKRLEWVATISSGGGNTYYPDSVKGRFTISRDNARNTLYLQMSSLRSEDTAMYYCVRLYYDGSPYAMDYWGQGTSVTVSS VL: DIQMTQTTSSLSASLGDRVTISCRASQDISNHLNWYQQKPDGTVKLLIYYTSRLHSGVPSRFSGSGSGTDYSLTISNLEQEDIATYFCQQDSKPPPTFGSGTKLEIKR
2.23

So what does the record say about OD450 at 100 nM for F1.73.9 (antibody, human IgG1, kappa, V domains shown, Human-murine chimeric antibody) VH: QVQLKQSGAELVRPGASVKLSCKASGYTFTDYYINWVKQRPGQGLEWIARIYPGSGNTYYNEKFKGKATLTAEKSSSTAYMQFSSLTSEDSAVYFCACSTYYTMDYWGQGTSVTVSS VL: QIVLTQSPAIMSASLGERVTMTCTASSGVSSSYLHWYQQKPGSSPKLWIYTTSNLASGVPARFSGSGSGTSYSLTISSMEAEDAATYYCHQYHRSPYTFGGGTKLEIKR ?
1.47

Could you tell me which OD450 at 100 nM is on file for F1.115.8 (antibody, human IgG1, kappa, V domains shown, Human-murine chimeric antibody) VH: EVQLQQSGPELVKPGASVKMSCKASGYTFTEYYMHWVKQSHGKSLEWIGYIYPNNGGNGYNQKFKGKATLTVDKSSSTAYMGLRSLTSEDSAVYYCVRGYYSNWYFDVWGTGTTVTVSS VL: DVLMTQTPLSLPVSLGDQASISCRSSQSIVHSNGKTYLEWYLQKPGQSPKLLIYKVSNRFSGVPDRFSGSGSGTDFTLKISRVEAEDLGVYYCFQGSHVPFTFGSGTKLEIKR ?
2.26

What does the data say about its OD450 at 100 nM? Entry: F1.42.8 (antibody, human IgG1, kappa, V domains shown, Human-murine chimeric antibody) VH: HVQLQQPGAELVKPGASVKLSCKASGYTFTSYWMHWVRQRPGQGLEWIEMIHPNSGSTNYNEKFKSKATLTVDKSSSTAYMQLSSLTSEDSAVYYCARGNYNSSLYAMDYWGQGTSVTVSS VL: DIQMTQTTSSLSASLGDRVTISCSASQGISNYLNWYQQKPDGTVKLLIYYASNLHSGVPSRFSGSGSGTAYSLTISNLEPEDIATYYCQQYSILPYTFGGGTKLEIKR
2.67

Fill in the blank: the reported OD450 at 100 nM of F2.154.1 (antibody, human IgG1, kappa, V domains shown, Human-murine chimeric antibody) VH: QVQLQQSGAELVRPGASVKLSCKASGYRFTDYEMHWVKQTPVHGLEWIGTIDPETGNTAYTQKFMDKATLTADKSSSTAYMELRSLTSEDSAVYYCTRGYSFTYWGQGTLATVSA VL: DVLMTQTPLSLPVSLGDQASISCRSSQNIVHSNGNTYLQWYLQKPGQSPKLLIFKVSNRFSGVPDRFSGSGSGTDFTLKISRVEAEDLGVYYCFQGSHVPFTFGTGTKLEIKR is ____.
2.24
